- Tested on: CD19+ B cells
- assayProtocol: Human B cell proliferation assay (3H-thymidine incorporation)
- testSettings: B cells; Donor 146; 2 μg/ml; Experiment A
Strand notation (5' to 3'): a small letter for the sugar, then the base; units joined by * are phosphorothioate-linked, units joined directly phosphodiester-linked; [ ] holds rarer units or linkages, { } end groups; capitals alone tell only the bases. d = 2'-deoxy (DNA)
Lab note: compare cpm3 against 20000 cpm. Equal or greater, write rule met. Smaller, write rule not met.

>  <substance>
5′-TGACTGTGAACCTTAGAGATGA-3′ (SEQ ID NO: 3) (dT*dG*dA*dC*dT*dG*dT*dG*dA*dA*dC*dC*dT*dT*dA*dG*dA*dG*dA*dT*dG*dA) [Compound P-7, reference compound]

>  <classLabel>
rule not met

$$$$

Does the reported cpm3 for 5′-TCGTCGA-3′- C3-5′-ACGTTCG-3′-C3-5′-AGATGAT-3′ [Compound C-9] fall at or above the 20000 cpm mark? rule met

Does the reported cpm3 for 5′-TGCTGC-3′-HEG-5′-AGCTTGC-3′-HEG-5′-AGATGAT-3′ [Compound M-1, reference compound] fall at or above the 20000 cpm mark? rule not met

Does the reported cpm3 for 5′-TCGTCGA-3′-HEG-5′-ACGTTCG-3′-HEG-5′-AGATGAT-3′ [Compound C-8] fall at or above the 20000 cpm mark? rule met

Does the reported cpm3 for (5′-TCGTCGA-3′)2-glycerol-5′-TCGTCGA-3′ [Compound C-28] fall at or above the 20000 cpm mark? rule met

Does the reported cpm3 for 5′-TCGTCGA-3′-HEG-5′-TCGTCGA-3′-HEG-5′-TCGTCGA-3′ [Compound C-21] fall at or above the 20000 cpm mark? rule not met

Does the reported cpm3 for 5′-TCGTCGA-3′ [Compound P-1, reference compound] fall at or above the 20000 cpm mark? rule not met

* * *

- System: human PBMCs
- assayProtocol: Human PBMC cytokine response assay (IFN-γ and IFN-α in cell-free medium by ELISA), with or without cPLGA
- Type: cell-based
- testSettings: donor 28186; Table 15
Strand notation (5' to 3'): a small letter for the sugar, then the base; units joined by * are phosphorothioate-linked, units joined directly phosphodiester-linked; [ ] holds rarer units or linkages, { } end groups; capitals alone tell only the bases. d = 2'-deoxy (DNA)
readout: IFN-a (pg/mL)
Use pg/mL as the unit, but write only the number.

Answered cases to consult:
>  <substance>
(5′-TCGTCGA-3′)2-glycerol-5′-TCGTCGA-3′ [Compound C-28]

>  <measuredOn>
human PBMCs

>  <IFN-a / pg/mL>
4

$$$$
>  <substance>
(5′-TCGTCGA-3′)2-glycerol-5′-AACGTTC-3′ [Compound C-27]

>  <measuredOn>
human PBMCs

>  <IFN-a / pg/mL>
4

$$$$
>  <substance>
(5′-TCGTCGA-3′-HEG)2-glycerol-HEG-5′-AACGTTC-3′-HEG-5′-TCGA-3′ [Compound C-97]

>  <measuredOn>
human PBMCs

>  <IFN-a / pg/mL>
71

$$$$
>  <substance>
(5′-TCGTCGA-3′-HEG)2-glycerol-HEG-5′-AACGTTC-3′ [Compound C-96]

>  <measuredOn>
human PBMCs

>  <IFN-a / pg/mL>
446

$$$$

Specify measured IFN-a for 5′-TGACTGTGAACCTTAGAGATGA-3′ (SEQ ID NO: 3) (dT*dG*dA*dC*dT*dG*dT*dG*dA*dA*dC*dC*dT*dT*dA*dG*dA*dG*dA*dT*dG*dA) [Compound P-7, negative control, reference compound] . 25

Specify measured IFN-a for 5′-TCGTCGA-3′- C3-5′-ACGTTCG-3′-C3-5′-AGATGAT-3′ [Compound C-9] . 16

Specify measured IFN-a for (5′-TCGTCGA-3′-HEG)2-glycerol-HEG-5′-TCGTCGA-3′ [Compound C-94] . 239

* * *

- Test system: human PBMCs
- assayProtocol: Human PBMC cytokine response assay (IFN-γ and IFN-α in cell-free medium by ELISA), with or without cPLGA
- Type: cell-based
- testSettings: Example 58; 20 ug/ml; donor 4
Strand notation (5' to 3'): a small letter for the sugar, then the base; units joined by * are phosphorothioate-linked, units joined directly phosphodiester-linked; [ ] holds rarer units or linkages, { } end groups; capitals alone tell only the bases. d = 2'-deoxy (DNA)
# maps each entry to its IFN-α
In your response, the unit should come after the numeric value.

Answered cases to consult:
>  <substance>
5′-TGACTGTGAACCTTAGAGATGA-3′ (SEQ ID NO: 3) (dT*dG*dA*dC*dT*dG*dT*dG*dA*dA*dC*dC*dT*dT*dA*dG*dA*dG*dA*dT*dG*dA) [Compound P-7, negative control, reference compound]

>  <IFN-α>
52 pg/mL

$$$$
>  <substance>
5′-TCGAACGTTCGA-3′ (SEQ ID NO: 155) (listed as DNA, chemistry not fully specified) [Compound P-17, reference compound]

>  <IFN-α>
52 pg/mL

$$$$
>  <substance>
(5′-TCGACGT-3′-HEG)2-glycerol-HEG-5′-TCGACGT-3′ [Compound C-101]

>  <IFN-α>
157 pg/mL

$$$$
>  <substance>
(5′-TAGTCAT-3′-HEG)2-glycerol-HEG-5′-AACCTTC-3′ [Compound M-3, reference compound]

>  <IFN-α>
52 pg/mL

$$$$
>  <substance>
(5′-TCGAACGTTCGA-3′ (SEQ ID NO: 155)-HEG)3-trebler-HEG-5′-T-3′ (three copies HEG-trebler branched, HEG-T, chemistry not fully specified) [Compound C-175]

>  <IFN-α>
52 pg/mL

$$$$
>  <substance>
(5′-TCGAACGTTCGA-3′ (SEQ ID NO: 155)-HEG)2-glycerol-HEG-3′-AGCTTGCAAGCT-5′ (SEQ ID NO: 155) (DNA, all phosphorothioate, methylation of C not given here; Three DNA copies joined by HEG spacers and glycerol branching, one copy inverted) [Compound C-174]

>  <IFN-α>
837 pg/mL

$$$$

Now examine the next entry.
Specify measured IFN-α for (5′-TCGAACGTTCGA-3′ (SEQ ID NO: 155)-HEG)2-glycerol-HEG-5′-TCGAACGTTCGA-3′ (SEQ ID NO: 155) (three copies via HEG-glycerol branching, chemistry not fully specified) [Compound C-173] . 299 pg/mL

* * *

- System: human PBMCs
- assayProtocol: Human PBMC cytokine response assay (IFN-γ and IFN-α in cell-free medium by ELISA), with or without cPLGA
- Assay type: cell-based
- testSettings: donor 28185; Table 15
readout: IFN-a (pg/mL)
Use pg/mL as the unit, but write only the number.

Answered cases to consult:
>  <substance>
Starburst Dendrimer ® -(5′-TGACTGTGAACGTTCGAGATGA-3′)x (X range = 3-16) (SEQ ID NO: 2) (See Ex. 24) [Compound C-102]

>  <IFN-a / pg/mL>
1880

$$$$
>  <substance>
(5′-TCGTCGA-3′)2-glycerol-5′-AACGTTC-3′ [Compound C-27]

>  <IFN-a / pg/mL>
4

$$$$
>  <substance>
5′-TCGTCG-3′-HEG-5′-AACGTT-3′-HEG-5′-AGATGAT-3′ [Compound C-23]

>  <IFN-a / pg/mL>
83

$$$$
>  <substance>
5′-TCGTCGA-3′-HEG-5′-ACGTTCG-3′-HEG-5′-AGATGAT-3′ [Compound C-8]

>  <IFN-a / pg/mL>
196

$$$$

Look up and report measured IFN-a (human PBMCs) for the following substance: 5′-TCGTCGA-3′-HEG-5′-TCGTCGA-3′-HEG-5′-TCGTCGA-3′ [Compound C-21] 443

* * *

- Test system: human PBMCs
- assayProtocol: Human PBMC cytokine response assay (IFN-γ and IFN-α in cell-free medium by ELISA), with or without cPLGA
- Type: cell-based
- testSettings: Table 13; donor 28157
readout: IFN-α (pg/mL)
Use pg/mL as the unit, but write only the number.

Answered cases to consult:
>  <substance>
5′-TGACTGTGAAGGTTAGAGATGA-3′ (SEQ ID NO: 136) (listed as DNA, chemistry not fully specified) [Compound P-8, reference compound]

>  <scaleUnit>
pg/mL

>  <IFN-α>
9

$$$$
>  <substance>
5′-TCGTCG-3′-HEG-5′-AACGTT-3′-HEG-5′-AGATGAT-3′ [Compound C-23]

>  <scaleUnit>
pg/mL

>  <IFN-α>
235

$$$$

Now examine the next entry.
Look up and report measured IFN-α (human PBMCs) for the following substance: 5′-TCGTCGA-3′-HEG-5′-AACGTTC-3′-HEG-5′-TCGTCGA-3′ [Compound C-55] 5

* * *

# maps each entry to its IFN-g
- System: human PBMCs
- assayProtocol: Human PBMC cytokine response assay (IFN-γ and IFN-α in cell-free medium by ELISA), with or without cPLGA
- Format: cell-based
- testSettings: donor 28188; Table 15
Strand notation (5' to 3'): a small letter for the sugar, then the base; units joined by * are phosphorothioate-linked, units joined directly phosphodiester-linked; [ ] holds rarer units or linkages, { } end groups; capitals alone tell only the bases. d = 2'-deoxy (DNA)
Use pg/mL as the unit, but write only the number.

>  <substance>
5′-TCGTCG-3′-HEG-5′-AACGTT-3′-HEG-5′-AGATGAT-3′ [Compound C-23]

>  <scaleUnit>
pg/mL

>  <IFN-g>
3

$$$$
>  <substance>
5′-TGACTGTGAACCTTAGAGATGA-3′ (SEQ ID NO: 3) (dT*dG*dA*dC*dT*dG*dT*dG*dA*dA*dC*dC*dT*dT*dA*dG*dA*dG*dA*dT*dG*dA) [Compound P-7, negative control, reference compound]

>  <scaleUnit>
pg/mL

>  <IFN-g>
2

$$$$
>  <substance>
(5′-TCGTCGA-3′)2-glycerol-5′-TCGTCGA-3′ [Compound C-28]

>  <scaleUnit>
pg/mL

>  <IFN-g>
5

$$$$

Specify measured IFN-g for (5′-TCGTCGA-3′-HEG)2-glycerol-HEG-5′-AACGTTC-3′ [Compound C-96] . 12

Specify measured IFN-g for 5′-TGCTGCA-3′-C3-5′-AGCTTGC-3′-C3-5′-AGATGAT-3′ (No CG) [Compound C-86] . 5

Specify measured IFN-g for (5′-TCGTCGA-3′-HEG)2-glycerol-HEG-5′-TCGTCGA-3′ [Compound C-94] . 17

Specify measured IFN-g for (5′-TCGTCGA-3′-HEG)2-glycerol-HEG-5′-AACGTTC-3′-HEG-5′-TCGA-3′ [Compound C-97] . 5

Specify measured IFN-g for (5′-TCGTCGA-3′)2-glycerol-5′-AACGTTC-3′ [Compound C-27] . 3
